# Target Or System: T1, Recombinant Cx43CT (carboxyl terminal domain of rat connexin43, residues 255-382, preceded by GPLG) (rat, UniProt P08050 255-382)
# T1 construct: range 255-382; Made in E. coli as a GST fusion (pGEX-6P-2) and cleaved from GST; the protein used was derived from rat cDNA; 15N-labeled for NMR; also called recombinant CT; 15N-Cx43CT
# T1 sequence (P08050 other isoform, or with tags, fused parts or gaps limits assumed): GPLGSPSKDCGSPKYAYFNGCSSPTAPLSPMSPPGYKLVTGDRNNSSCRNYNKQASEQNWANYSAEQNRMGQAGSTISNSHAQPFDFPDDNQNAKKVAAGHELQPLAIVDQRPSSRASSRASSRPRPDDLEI
# Protocol Summary: SPR, Cx43CT immobilized on carboxymethyl dextran

Binder	binding result
WEEPRRPFTMSGGGSAETHARVPFYSHSPMRHRLPGVHL (Synthetic doublet peptide from the biased phage display screen) [RXP-D]	no binding
GIAAREPNSHDGGGSAHARVPFYSHSRDLWRKPAKSL (Synthetic doublet peptide from the biased phage display screen) [RXP-C]	no binding
DVPGRDPGYIKGGGSAHARVPFYSHSLNRNRKPSLYQ (Synthetic doublet peptide from the biased phage display screen) [RXP-A]	no binding
EIQPRSPLMFSGGGSAHARVPFYSHSAKEARWPRAHR (Synthetic doublet peptide from the biased phage display screen) [RXP-B]	no binding
